assay: inhibitors of TNFa-induced NFkB p65 translocation, primary screen, imaging, HUVEC, MLSMR starter and 10KST1 sets (AID 438); details: HUVEC TNFa-induced p65 nuclear translocation; measured here: nuclei count (cytotoxicity indicator), at 2.08 µM;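 further: compound added about 3h40 before a 20 min TNFalpha stimulation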
The reader will find reported cell count values listed item by item below.
Give the value as a plain number.

CCCCOCCCNC(=O)c1cccs1 | 471

The value of cell count measured for the compound COc1cccc(C(=O)Nc2ccc(-c3nnc(-c4ccco4)o3)cc2)c1 turned out to be 684

The value of cell count measured for the compound Cc1nn2cnc3sc4c(c3c2nc1=O)CCCC4 turned out to be 535

Value of measured cell count for the entry COc1ccc(NC(=O)N2CCN(c3nc(-c4cccc(OC)c4)cs3)CC2)cc1 : 564

According to the records, this compound N#Cc1nc(COc2ccc(Br)cc2)oc1N1CCN(Cc2ccccc2)CC1 displays cell count of 444

The measured cell count associated with O=C(/C=C1\NC2(CCCC2)Cc2ccccc21)N1CCOCC1 reads 637

Sample Cc1cc(OCC(=O)NCCO)cc(C)c1Cl ; cell count observed: 419
